Hey, just so you know, these numbers are from ChEMBL document CHEMBL1132256.

Test system: Lewis lung carcinoma cell line
Assay: Inhibitory activity of tested against Murine Lewis lung carcinoma
Assay type: functional, cell-based
Settings: Mus musculus
Provide the recorded IC50 for the entries that follow.
// return numeric value only (unit: nM, not printed)

Form: Entry = CN(CCCNC(=O)c1cccc2cc3cc(N(C)C)ccc3nc12)CCCNC(=O)c1cccc2cc3cc(N(C)C)ccc3nc12 | System = Lewis lung carcinoma cell line | IC50 = ____
183

Now try COc1cccc2c1C(=O)c1c(O)c3c(c(O)c1C2=O)C[C@@](O)(C(=O)CO)C[C@@H]3O[C@H]1C[C@H](N)[C@H](O)[C@H](C)O1 .
22

Can you check CN(CCCNC(=O)c1cccc2cc3ccc(N(C)C)cc3nc12)CCCNC(=O)c1cccc2cc3ccc(N(C)C)cc3nc12 next?
320

---

Test system: Lewis lung carcinoma cell line
Assay: Inhibitory activity of tested against Murine Lewis lung carcinoma
Format: functional, cell-based
Conditions: Mus musculus
readout: IC50
Express the reported value numerically, then name its unit.

Looking for the measured IC50 of CN(CCCNC(=O)c1cc(Cl)cc2cc3ccccc3nc12)CCCNC(=O)c1cc(Cl)cc2cc3ccccc3nc12 , can you help?
5.9 nM

Request: CN(CCCNC(=O)c1cccc2cc3cccc(-c4ccccc4)c3nc12)CCCNC(=O)c1cccc2cc3cccc(-c4ccccc4)c3nc12
1080 nM

Moving on to CN(CCCNC(=O)c1cccc2cc3cccc(Cl)c3nc12)CCCNC(=O)c1cccc2cc3cccc(Cl)c3nc12
8 nM

Try the compound Cc1cccc2cc3cccc(C(=O)NCCCN(C)CCCNC(=O)c4cccc5cc6cccc(C)c6nc45)c3nc12
1.8 nM

Try this compound next: CN(CCCNC(=O)c1cccc2cc3cc(Br)ccc3nc12)CCCNC(=O)c1cccc2cc3cc(Br)ccc3nc12
35 nM

Also CN(CCCNC(=O)c1cccc2cc3cc(C(C)(C)C)ccc3nc12)CCCNC(=O)c1cccc2cc3cc(C(C)(C)C)ccc3nc12 ?
1400 nM

Do the same for Cc1ccc2cc3ccccc3nc2c1C(=O)NCCCN(C)CCCNC(=O)c1c(C)ccc2cc3ccccc3nc12 please
2400 nM

Please give the result for COc1cccc2cc3cccc(C(=O)NCCCN(C)CCCNC(=O)c4cccc5cc6cccc(OC)c6nc45)c3nc12 too.
170 nM

Item: Cc1ccc(Cl)c2cc3cccc(C(=O)NCCCN(C)CCCNC(=O)c4cccc5cc6c(Cl)ccc(C)c6nc45)c3nc12
8.8 nM

Similarly, CN(CCCNC(=O)c1cccc2cc3cc(-c4ccccc4)ccc3nc12)CCCNC(=O)c1cccc2cc3cc(-c4ccccc4)ccc3nc12 ?
610 nM

What do we get for CN(CCCNC(=O)c1cccc2cc3ccc(C(F)(F)F)cc3nc12)CCCNC(=O)c1cccc2cc3ccc(C(F)(F)F)cc3nc12 ?
160 nM

Let us now turn to COc1ccc2nc3c(C(=O)NCCCN(C)CCCNC(=O)c4cccc5cc6cc(OC)ccc6nc45)cccc3cc2c1
20 nM

Please answer likewise for Cc1cc(C(=O)NCCCN(C)CCCNC(=O)c2cc(C)cc3cc4ccccc4nc23)c2nc3ccccc3cc2c1
67 nM

Next entry: Cc1ccc2nc3c(C(=O)NCCCN(C)CCCNC(=O)c4cccc5cc6cc(C)ccc6nc45)cccc3cc2c1
73 nM

Do the same for Cc1ccc(C(=O)NCCCN(C)CCCNC(=O)c2ccc(C)c3cc4cccc(C)c4nc23)c2nc3c(C)cccc3cc12 please
1.4 nM

Repeat for the following compound: COc1ccc2cc3cccc(C(=O)NCCCN(C)CCCNC(=O)c4cccc5cc6ccc(OC)cc6nc45)c3nc2c1
20 nM

---

Tested on: CAKI-1
Test: inhibitory activity against renal tumor […] cell line.
Format: functional
Conditions: Homo sapiens
Flag rule - GI50 less than 300 nM flags Yes; the remaining entries get No.

Lab log: compare recorded GI50 with 300 nM; is it strictly lower for CCc1cccc2cc3cccc(C(=O)NCCCN(C)CCCNC(=O)c4cccc5cc6cccc(CC)c6nc45)c3nc12 ?
Yes

For Cc1ccc2cc3cccc(C(=O)NCCCN(C)CCCNC(=O)c4cccc5cc6ccc(C)cc6nc45)c3nc2c1 then?
No

Let us now turn to CN(CCCNC(=O)c1cccc2cc3c(Cl)cccc3nc12)CCCNC(=O)c1cccc2cc3c(Cl)cccc3nc12
No

Next record, please: COc1cccc2cc3cccc(C(=O)NCCCN(C)CCCNC(=O)c4cccc5cc6cccc(OC)c6nc45)c3nc12
No

And what about the compound Cc1ccc2nc3c(C(=O)NCCCN(C)CCCNC(=O)c4cccc5cc6cc(C)ccc6nc45)cccc3cc2c1 ?
Yes

Another compound to check: CN(CCCNC(=O)c1cccc2cc3cccc(C(F)(F)F)c3nc12)CCCNC(=O)c1cccc2cc3cccc(C(F)(F)F)c3nc12
No

Follow-up item: Cc1ccc2cc3ccccc3nc2c1C(=O)NCCCN(C)CCCNC(=O)c1c(C)ccc2cc3ccccc3nc12
No

Next: CN(CCCNC(=O)c1cccc2cc3cccc(Br)c3nc12)CCCNC(=O)c1cccc2cc3cccc(Br)c3nc12
Yes

Now the same for Cc1cccc2cc3cccc(C(=O)NCCCN(C)CCCNC(=O)c4cccc5cc6cccc(C)c6nc45)c3nc12
Yes

Next: CN(CCCNC(=O)c1cccc2cc3ccc(Cl)cc3nc12)CCCNC(=O)c1cccc2cc3ccc(Cl)cc3nc12
Yes

Moving on to the next compound: CN(CCCNC(=O)c1c(Cl)ccc2cc3ccccc3nc12)CCCNC(=O)c1c(Cl)ccc2cc3ccccc3nc12
No

Now this one: Cc1cc(C(=O)NCCCN(C)CCCNC(=O)c2cc(C)cc3cc4ccccc4nc23)c2nc3ccccc3cc2c1
Yes

Repeat with Cc1ccc(C(=O)NCCCN(C)CCCNC(=O)c2ccc(C)c3cc4ccccc4nc23)c2nc3ccccc3cc12
Yes

Now the compound CN(CCCNC(=O)c1cccc2cc3cccc(-c4ccccc4)c3nc12)CCCNC(=O)c1cccc2cc3cccc(-c4ccccc4)c3nc12
No

Repeat with CN(CCCNC(=O)c1cccc2cc3ccccc3nc12)CCCNC(=O)c1cccc2cc3ccccc3nc12
Yes

Can you check CN(CCCNC(=O)c1cccc2cc3cccc(F)c3nc12)CCCNC(=O)c1cccc2cc3cccc(F)c3nc12 next?
Yes

Entry CN(CCCNC(=O)c1cccc2cc3cccc(Cl)c3nc12)CCCNC(=O)c1cccc2cc3cccc(Cl)c3nc12 please
Yes

And for Cc1cccc2nc3c(C(=O)NCCCN(C)CCCNC(=O)c4cccc5cc6c(C)cccc6nc45)cccc3cc12 ?
Yes

Moving on to the next compound: Cc1ccc(C)c2nc3c(C(=O)NCCCN(C)CCCNC(=O)c4cccc5cc6c(C)ccc(C)c6nc45)cccc3cc12
Yes

---

Tested on: Lewis lung carcinoma cell line
Assay: Inhibitory activity of tested against Murine Lewis lung carcinoma
Type: functional, cell-based
Details: Mus musculus
Provide the reported pIC50 of each item.
Lab note — pIC50 values are minus log10 of concentrations in M.

pIC50 of CN(CCCNC(=O)c1cccc2cc3ccc(F)cc3nc12)CCCNC(=O)c1cccc2cc3ccc(F)cc3nc12 on Lewis lung carcinoma cell line?
7.70

Try the compound Cc1ccc(C)c2nc3c(C(=O)NCCCN(C)CCCNC(=O)c4cccc5cc6c(C)ccc(C)c6nc45)cccc3cc12
8.49

Also need Cc1ccc(C(=O)NCCCN(C)CCCNC(=O)c2ccc(C)c3cc4ccccc4nc23)c2nc3ccccc3cc12 , thanks.
7.85

Follow-up entry: CN(CCCNC(=O)c1c(Cl)ccc2cc3ccccc3nc12)CCCNC(=O)c1c(Cl)ccc2cc3ccccc3nc12
5.53

Same read-out for CN(CCCNC(=O)c1cccc2cc3cccc(Br)c3nc12)CCCNC(=O)c1cccc2cc3cccc(Br)c3nc12 ?
8.22

Follow-up item: CN(CCCNC(=O)c1ccc(Cl)c2cc3ccccc3nc12)CCCNC(=O)c1ccc(Cl)c2cc3ccccc3nc12
7.38

And for CN(CCCNC(=O)c1cccc2cc3ccc(Cl)cc3nc12)CCCNC(=O)c1cccc2cc3ccc(Cl)cc3nc12 ?
7.89

Queued: COc1cc(NS(C)(=O)=O)ccc1Nc1c2ccccc2nc2ccccc12
7.92

---

Tested on: HT-29
Experiment: inhibitory activity against colon HT-29 cell line.
Assay type: functional
Details: Homo sapiens
In plain terms, low GI50, meaning strictly below 700 nM, gives Met, and everything else gives Not met.

Is it true that GI50 reported for CCc1cccc2cc3cccc(C(=O)NCCCN(C)CCCNC(=O)c4cccc5cc6cccc(CC)c6nc45)c3nc12 is less than 700 nM?
Not met

Item: CN(CCCNC(=O)c1cccc2cc3cccc(-c4ccccc4)c3nc12)CCCNC(=O)c1cccc2cc3cccc(-c4ccccc4)c3nc12
Not met

Similarly, Cc1cccc2cc3cccc(C(=O)NCCCN(C)CCCNC(=O)c4cccc5cc6cccc(C)c6nc45)c3nc12 ?
Met

Moving on to CN(CCCNC(=O)c1c(Cl)ccc2cc3ccccc3nc12)CCCNC(=O)c1c(Cl)ccc2cc3ccccc3nc12
Not met

Let us now turn to CN(CCCNC(=O)c1cccc2cc3cccc(Cl)c3nc12)CCCNC(=O)c1cccc2cc3cccc(Cl)c3nc12
Met

Moving on to the next compound: CN(CCCNC(=O)c1cccc2cc3c(Cl)cccc3nc12)CCCNC(=O)c1cccc2cc3c(Cl)cccc3nc12
Met

Subsequent entry: CN(CCCNC(=O)c1cccc2cc3ccc(Cl)cc3nc12)CCCNC(=O)c1cccc2cc3ccc(Cl)cc3nc12
Met

Another compound: Cc1ccc2cc3ccccc3nc2c1C(=O)NCCCN(C)CCCNC(=O)c1c(C)ccc2cc3ccccc3nc12
Not met

How about this compound: Cc1ccc(C(=O)NCCCN(C)CCCNC(=O)c2ccc(C)c3cc4ccccc4nc23)c2nc3ccccc3cc12
Met

What would you report for CN(CCCNC(=O)c1cccc2cc3ccccc3nc12)CCCNC(=O)c1cccc2cc3ccccc3nc12 ?
Met

Again, but for COc1cccc2cc3cccc(C(=O)NCCCN(C)CCCNC(=O)c4cccc5cc6cccc(OC)c6nc45)c3nc12
Met

Next entry: Cc1ccc2cc3cccc(C(=O)NCCCN(C)CCCNC(=O)c4cccc5cc6ccc(C)cc6nc45)c3nc2c1
Met

Follow-up item: Cc1ccc(C)c2nc3c(C(=O)NCCCN(C)CCCNC(=O)c4cccc5cc6c(C)ccc(C)c6nc45)cccc3cc12
Met

Then Cc1cccc2nc3c(C(=O)NCCCN(C)CCCNC(=O)c4cccc5cc6c(C)cccc6nc45)cccc3cc12 ?
Met

// repeat for CN(CCCNC(=O)c1cccc2cc3cccc(F)c3nc12)CCCNC(=O)c1cccc2cc3cccc(F)c3nc12 and report
Met
